target.system: Calcitonin gene-related peptide type 1 receptor (Cavia porcellus)
experiment.summary: Binding affinity against [125I]-hCalcitonin gene-related peptide type receptor binding sites in guinea pig atrium membrane
recorded.metric: pIC50
Please note pIC50 is a logarithmic value: minus log10 of concentration in mol/L. Answer with that number alone.

Entry H-VTHRAAGLLSRSGGVVKNNFVPTNVGSKAF-NH2 — recorded pIC50 = 7.96
